molecular target: Recombinant HD Q51 polypeptide (Homo sapiens, UniProt P42858, INS38QQQQQQQQQQQQQQQQQQQQQQQQQQQQQQ); assay: cell-free trap assay of purified polyQ; details: cell-free trap assay; read-out: IC50, aggregation of purified polyQ
Sequence (P42858 with tags, fused parts or gaps with the stated changes): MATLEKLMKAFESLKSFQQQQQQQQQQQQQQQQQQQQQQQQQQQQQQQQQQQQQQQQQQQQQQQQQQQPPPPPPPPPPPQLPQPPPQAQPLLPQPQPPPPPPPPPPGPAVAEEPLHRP
recorded_endpoint: IC50

Query block: Consider the compound O=C(Nc1ccc(Br)cc1)c1cccc(S(=O)(=O)Nc2ccc(Br)cc2)c1 and give its recorded IC50.
Result block: 25 µM

###

test system: HD Q51 aggregates in Cos1 cells; assay: HD Q51 aggregation in transfected Cos1 cells, cellulose acetate membrane trap; assay type: cell-based; details: Chlorocebus aethiops, COS-1; Cos1 cells transfected with HD Q51; read-out: IC50, polyQ aggregation (retained polyQ on membrane)
recorded_endpoint: pIC50
On this scale, pIC50 is minus log10 of a concentration expressed in M (mol/L).

Below: 2 compounds and their reported pIC50.
# input_smiles, recorded_number
measured = [
    ("CN(C)CCN1C(=O)c2ccc(Cl)c3c(Cl)ccc(c23)C1=O", 5.00),
    ("O=C1c2cccc3c(N4CCOCC4)ccc(c23)C(=O)N1Cc1ccccc1", 5.30),
]

Proceed to the following item.
Query block: Note pIC50 for the compound shown: CC/C(=C/c1sc2ccc3ccccc3c2[n+]1CCCS(=O)(=O)[O-])SC
Result block: 5.30
